condition.summary: in 1,2-dichloroethane, 333.15 K
recorded.endpoint: solubility (mole fraction)
Numbers only.

**Query** # input compound: O=[N+]([O-])c1cc(F)c(F)cc1[N+](=O)[O-] ; wanted: its solubility (mole fraction)
**Result** 0.00752

* * *

condition.summary: in methanol, 313.15 K
recorded.endpoint: solubility (mole fraction)
Give bare numbers.

**Query** # input compound: O=[N+]([O-])c1cc(F)c(F)cc1[N+](=O)[O-] ; wanted: its solubility (mole fraction)
**Result** 0.000504

* * *

condition.summary: in mesitylene, 333.15 K
recorded.endpoint: solubility (mole fraction)
Answers are plain numbers.

**Query** # input molecule: O=[N+]([O-])c1cc(F)c(F)cc1[N+](=O)[O-] ; wanted: its solubility (mole fraction)
**Result** 0.00652
